# PROTOCOL TEXT: Solution stability of each peptide against pH
# Type: physicochemical
# CONDITION INFO: conclusion from studies on stability in solution with different pH
Ends that are not written are not given here.

>  <RESIDUE CODES>
IYNEYIYDL [SEQ ID NO: 2, IYNEYIYDL]

>  <stability in the solution state>
poor stability

$$$$
>  <RESIDUE CODES>
EYYELFVNI [SEQ ID NO: 1, EYYELFVNI]

>  <stability in the solution state>
good stability

$$$$
>  <RESIDUE CODES>
RYCNLEGPPI (listed as Homo sapiens) [SEQ ID NO: 3, peptide derived from URLC10 protein]

>  <stability in the solution state>
poor stability

$$$$
>  <RESIDUE CODES>
VYGIRLEHF [SEQ ID NO: 4, VYGIRLEHF]

>  <stability in the solution state>
good stability

$$$$
>  <RESIDUE CODES>
KTVNELQNL (listed as Homo sapiens) [SEQ ID NO: 5, peptide derived from KOC1 protein]

>  <stability in the solution state>
poor stability

$$$$
